# Test system: HepG2
# TEST NAME: MTT cytotoxicity assay, HepG2
# Assay type: cell-based, human
# PROTOCOL CONDITIONS: CC50 VERO vs EC50 HepG2
ASSAY METRIC: Selectivity index (SI): folds more toxic respecting HepG2 than normal VERO cells (folds)
Lab book: enter the figure in folds, no units written.

COMPOUND: CCn1c(=O)n(CC(=O)Nc2ccc(C(=O)NN=Cc3ccc(OC)cc3)cc2)c(=O)c2cc(I)ccc21 [Compound 9c]
TEST VALUE: 11.00

INPUT: Query: Selectivity index (SI): folds more toxic respecting HepG2 than normal VERO cells; subject: CCCn1c(=O)n(CC(=O)Nc2ccc(C(=O)NN=Cc3ccccc3)cc2)c(=O)c2cc(I)ccc21 [Compound 9d]
OUTPUT: 8.92

INPUT: Param item: CCCn1c(=O)n(CC(=O)Nc2ccc(-c3nnc(S)o3)cc2)c(=O)c2cc(I)ccc21 [Compound 8b]
OUTPUT: 6.77

INPUT: Param item: CCCn1c(=O)n(CC(=O)Nc2ccc(C(=O)NN=Cc3ccc(Cl)cc3)cc2)c(=O)c2cc(I)ccc21 [Compound 9e]
OUTPUT: 6.25

INPUT: Param item: CCn1c(=O)n(CC(=O)Nc2ccc(C(=O)NN=Cc3ccccc3)cc2)c(=O)c2cc(I)ccc21 [Compound 9a]
OUTPUT: 6.69

INPUT: Param item: CCCn1c(=O)n(CC(=O)Nc2ccc(C(=O)OCC)cc2)c(=O)c2cc(I)ccc21 [Compound 5d]
OUTPUT: 6.21

INPUT: Param item: CCn1c(=O)n(CC(=O)Nc2ccc(C(=O)NN=Cc3ccc(C)cc3)cc2)c(=O)c2cc(I)ccc21 [Compound 9b]
OUTPUT: 7.94

Data provenance: paper PMC10716637
